- Tested on: NOMO1
- Assay protocol: cell viability relative to DMSO control; higher = less cytotoxic
- Measurement setup: RPMI 5 mM glucose + 10% dialyzed FBS; 48 h; 5.12 µM
Below is a list of entries, each paired with its recorded cell viability value.
Output spec: scalar in %, unitless text.

Observe how each entry below is paired with its result.
{"Compound": "COc1cc[nH]c2ncc(C(=O)C(=O)N3CCN(C(=O)c4ccccc4)C[C@H]3C)c1-2", "Value type": "cell viability", "Value unit": "%", "Observed": 99.2}
{"Compound": "CNCC[C@H](Oc1cccc2ccccc12)c1cccs1", "Value type": "cell viability", "Value unit": "%", "Observed": 121}

Entry C=C[C@H]1CN2CCC1C[C@@H]2C(O)c1ccnc2ccc(OC)cc12 (stereo partly drawn) under NOMO1 had cell viability of 106

Entry COC(=O)C\1=C(C)\N\C(=C(/C1C2=CC=CC3=NON=C23)C(=O)OC(C)C)C (stereo not drawn) under NOMO1 had cell viability of 92.8

Entry C[C@@H]1CCO[C@H]2CN\3/C=C(/C(=O)NCC4=C(F)C=C(F)C=C4)C(=O)\C(=C3C(=O)N12)O under NOMO1 had cell viability of 95.5
